- Assay Protocol: Time to achieve maximal concentration in rats after 0.2 mg/kg intravenous dose
- Format: ADME, organism-based
- Design: dose 0.2 mg/kg, route intravenous
- Experimental Context: rat, in vivo
Result Type: Tmax (min)
Field format: number, assumed min, no unit text.

Given the compound O=C(O)C1(c2ccc(-c3ccc(OC4CCC(C(F)(F)F)CC4)cc3)c(F)c2)CC1 (stereo unspecified) , what is its reported Tmax? 15

###

Listed here: items and their measured inhibition at 100 µM.
- Target Under Test: CYP1A2 (Homo sapiens, UniProt P05177)
- Sequence (P05177 whole entry): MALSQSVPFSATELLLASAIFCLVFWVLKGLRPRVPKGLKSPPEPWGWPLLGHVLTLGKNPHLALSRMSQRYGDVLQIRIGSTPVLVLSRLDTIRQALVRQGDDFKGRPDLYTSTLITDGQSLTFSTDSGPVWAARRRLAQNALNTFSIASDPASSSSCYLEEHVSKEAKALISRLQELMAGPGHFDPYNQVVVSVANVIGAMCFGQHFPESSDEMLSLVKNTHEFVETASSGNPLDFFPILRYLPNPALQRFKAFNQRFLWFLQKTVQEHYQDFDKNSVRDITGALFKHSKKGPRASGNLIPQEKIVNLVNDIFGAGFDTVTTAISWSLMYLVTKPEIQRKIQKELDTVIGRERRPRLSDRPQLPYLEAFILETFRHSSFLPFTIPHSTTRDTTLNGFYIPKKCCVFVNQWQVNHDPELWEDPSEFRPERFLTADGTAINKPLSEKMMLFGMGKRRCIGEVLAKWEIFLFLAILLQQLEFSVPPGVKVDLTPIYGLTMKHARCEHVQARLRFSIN
- Assay Protocol: Interaction with human cytochrome P450 isoform 1A2 expressed in baculovirus-insect cells at 100 uM
- Format: ADME

CC(c1ccc(-c2ccc(C(F)(F)F)cc2)c(F)c1)c1nnn[nH]1 (stereo not drawn)
> 50%

Given the compound CC(C(=O)O)c1ccc(-c2ccc(C3CCCCC3)cc2)c(F)c1 (stereo not drawn) , what is its reported inhibition at 100 µM? > 50%

Given the compound CC(C(=O)NS(C)(=O)=O)c1ccc(-c2ccc(C(F)(F)F)cc2)c(F)c1 (stereo not drawn) , what is its reported inhibition at 100 µM? > 50%
